# assayed system: human PD-L1 (cell surface) (human, UniProt Q9NZQ7)
# Sequence (Q9NZQ7 19-238): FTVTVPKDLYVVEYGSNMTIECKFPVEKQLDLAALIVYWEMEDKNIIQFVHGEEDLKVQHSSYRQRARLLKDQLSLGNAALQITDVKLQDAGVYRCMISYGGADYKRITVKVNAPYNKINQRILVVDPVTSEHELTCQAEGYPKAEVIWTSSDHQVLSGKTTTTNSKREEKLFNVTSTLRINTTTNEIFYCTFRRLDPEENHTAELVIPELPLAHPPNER
# procedure summary: FACS, T24 cells
pEC50: −log10 of the molar value.
Answer false (0) if pEC50 is under 10, and true (1) if it is 10 or more.

Reference set (2 entries):
- R2-4D2 (antibody, V domains shown) VH: QVQLVESGGGLVQAGGSLRLSCAASGFSASDVVMAWYRQAPGKQREFVANLGASSTTRYADSVKGRFTISRDDAKNTVSLQMNSLKSEDTAVYYCNALVWNGSSYNNWGQGTQVTVSS: true (1)
- R3-5F8 (antibody, V domains shown) VH: EVQLVESGGGLVQPGGSLRLSCVASGFDFSDTHMGWYRQAPGKERELVAIITSGGSTDYVDSVKGRFTISRDNAKNTVYLQMNSLKFEDTAVYYCNARRTTIYWGQGTQVTVSS: false (0)

Qu. Could you please find out whether R2-4E2 (antibody, V domains shown) VH: EVQLVESGGGSVQDGGSLTLSCAASGFSAGDVVMAWYRQAPGKQREFVANIAASSTTRYTDSVKGRFTISRDNAKNTVYLQMNSLKSEDTAVYYCNALVWNGSSYNNWGQGTQVTVSS has pEC50 that meets 10 or exceeds it?
Ans. true (1)
